Where these numbers come from: the supplement of paper PMC9112550

Test system: Escherichia coli TOP10;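 further: peptides expressed intracellularly from a pBAD plasmid library in pooled LB shake-flask culture, induced with 0.3% L-arabinose, DNA abundance read by NGS, three biological replicates, DESeq2 with apeglm shrinkage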
testMethodNotes: shrunken log2 fold change of peptide-encoding DNA abundance (4.5 h post-induction vs induction); higher = less antimicrobial activity (less host growth inhibition)
conditionParameters: time post-induction: 4.5 h; library: site-saturation at positions 5, 18, 19, 20
propertyMeasured: shrunken log2 fold change

- RRIRERPPRLPRPRPRPMMLPRP: -0.0415
- RRIRERPPRLPRPRPRPLHVPRP: -0.268
- RRIRVRPPRLPRPRPRPRIIPRP: -0.0581
- RRIRMRPPRLPRPRPRPEHWPRP: -0.00593
- RRIRPRPPRLPRPRPRPGTMPRP: -0.133
- RRIRQRPPRLPRPRPRPQQIPRP: -0.0822
- RRIRKRPPRLPRPRPRPHAYPRP: 0.0163
- RRIRHRPPRLPRPRPRPTVFPRP: -0.251
- RRIRNRPPRLPRPRPRPPFCPRP: 0.19
- RRIRFRPPRLPRPRPRPESAPRP: 0.428
- RRIRVRPPRLPRPRPRPHMRPRP: -0.0474
- RRIRARPPRLPRPRPRPWYRPRP: -0.099
- RRIRHRPPRLPRPRPRPYIRPRP: -0.0464
- RRIRWRPPRLPRPRPRPIYPPRP: -0.0275
- RRIRCRPPRLPRPRPRPWLLPRP: -0.381
- RRIRKRPPRLPRPRPRPAQHPRP: 0.65
- RRIRNRPPRLPRPRPRPHQEPRP: -0.00146
- RRIRTRPPRLPRPRPRPMGHPRP: -0.118
- RRIRMRPPRLPRPRPRPNTAPRP: 0.0661
- RRIRWRPPRLPRPRPRPPEVPRP: 0.334
- RRIRHRPPRLPRPRPRPHGDPRP: -0.01
- RRIRKRPPRLPRPRPRPSYDPRP: 0.0212
- RRIRNRPPRLPRPRPRPFCYPRP: 0.166
- RRIRWRPPRLPRPRPRPLEIPRP: 0.299
- RRIRGRPPRLPRPRPRPICQPRP: 0.655
- RRIRSRPPRLPRPRPRPNEKPRP: -0.0451
- RRIRERPPRLPRPRPRPSLHPRP: -0.309
